- System: Escherichia coli
- TEST_METHOD_NOTES: Ratio of kcat to Km for purified Escherichia coli pantothenate kinase by spectrophotometry
Rule: kcat/Km below 7 mM⁻¹ s⁻¹ gives TRUE, anything at or above gives FALSE.

> print(dat)
                               entry.smiles  class.name
1  CC(C)(CO)[C@@H](O)C(=O)NCCC(=O)N1CCc2ccccc21        TRUE
2  CC(C)(CO)[C@@H](O)C(=O)NCCC(=O)Nc1ccccc1       FALSE
3   CCCCCNC(=O)CNCCCNC(=O)[C@H](O)C(C)(C)CO        TRUE
4  CC(C)(CO)[C@@H](O)C(=O)NCCC(=O)NCCCn1ccnc1       FALSE

* * *

- Tested on: Escherichia coli
- TEST_METHOD_NOTES: Activity of purified Escherichia coli pantothenate kinase by spectrophotometry
# if value of kcat reaches 0.8 s⁻¹, tag yes; if it stays below, tag no

> print(dat)
                                    molecule     target.system  class.name
 1  CC(C)(CO)[C@@H](O)C(=O)NCCC(=O)NCCN1CCNCC1  Escherichia coli          no
 2  CC(C)(CO)[C@@H](O)C(=O)NCCC(=O)Nc1ccccc1  Escherichia coli         yes
 3  CCCCCNC(CNC(=O)[C@H](O)C(C)(C)CO)C(=O)O (stereo partly specified)  Escherichia coli          no
 4  CC(C)(CO)[C@@H](O)C(=O)NCCC(=O)NCc1ccccc1  Escherichia coli         yes
 5  CC(C)(CO)[C@@H](O)C(=O)NCCC(=O)NCC1CCNCC1  Escherichia coli         yes
 6  CC(C)(CO)[C@@H](O)C(=O)NCCC(=O)NCc1cccnc1  Escherichia coli         yes
 7  CC(C)(CO)[C@@H](O)C(=O)NCCC(=O)NCCCN1CCOCC1  Escherichia coli         yes
 8  CC(C)(CO)[C@@H](O)C(=O)NCCC(=O)N1CCc2ccccc21  Escherichia coli          no
 9  CC(C)(CO)[C@@H](O)C(=O)NCCC(=O)N1Cc2ccccc2C1  Escherichia coli          no
10  CCCCCNC(=O)CNC(=O)CCNC(=O)[C@H](O)C(C)(C)CO  Escherichia coli         yes

* * *

- System: Escherichia coli
- TEST_METHOD_NOTES: Activity of purified Escherichia coli pantothenate kinase by spectrophotometry
OBSERVED_PROPERTY: kcat

> print(dat)
                               entry.smiles  observed.property  value.measured
1  CC(C)(CO)[C@@H](O)C(=O)NCCC(=O)NCCc1ccccn1               kcat        1.15 s⁻¹
2    CCCCCNC(=O)CCNC(=O)[C@H](O)C(CC)(CC)CO               kcat        0.28 s⁻¹
3  CCCC(=O)NCCNC(=O)CCNC(=O)[C@H](O)C(C)(C)CO               kcat        1.09 s⁻¹
4   CCCCCNC(=O)CNCCCNC(=O)[C@H](O)C(C)(C)CO               kcat        0.13 s⁻¹
5  CC(C)(CO)[C@@H](O)C(=O)NCCC(=O)NCCCn1ccnc1               kcat        0.46 s⁻¹
6          CC(C)(CO)[C@@H](O)C(=O)NCCC(=O)O               kcat        1.07 s⁻¹
